test system: Mus musculus; experiment: Toxicity in mouse assessed as sedative effect by measuring reduction of total distance traveled at 10 mg/kg, po measured over 60 mins by open-field test; type: organism-based; details: in vivo, 1 h
measurementKind: Activity

The cases that follow already have their Activity on record.
[[record]]
compound = "COc1ccc(C2CNC(=O)C2)cc1OC1CCCC1 (stereo unspecified) [ROLIPRAM]"
testvalue = "Toxic"

[[record]]
compound = "COc1ccc(/C=N/OCC(=O)N2CC(C)OC(C)C2)cc1OC1CCCC1 (stereo unspecified)"
testvalue = "Non-toxic"

[[record]]
compound = "CC1CN(CC(O)CO/N=C/c2ccc(OC(F)F)c(OC3CCCC3)c2)CC(C)O1 (stereo unspecified)"
testvalue = "Toxic"

[[record]]
compound = "CN1C(=O)CN=C(c2ccccc2)c2cc(Cl)ccc21 [DIAZEPAM]"
testvalue = "Toxic"

[[record]]
compound = "CC1CN(C(=O)CO/N=C/c2ccc(OC(F)F)c(OC3CCCC3)c2)CC(C)O1 (stereo unspecified)"
testvalue = "Non-toxic"


# context switch: different compound, same Activity
Give measured Activity for COc1ccc(/C=N/OCC(O)CN2CC(C)OC(C)C2)cc1OC1CCCC1 (stereo unspecified) (Mus musculus).
Non-toxic
